This listing pairs binders with measured % Annexin V/PI-positive cells, FaDu, 1.0 µg/ml mAb.
# Study Target: T1, human EpCAM (epithelial cell adhesion/activating molecule) (human, UniProt P16422 24-314)
# T1 sequence: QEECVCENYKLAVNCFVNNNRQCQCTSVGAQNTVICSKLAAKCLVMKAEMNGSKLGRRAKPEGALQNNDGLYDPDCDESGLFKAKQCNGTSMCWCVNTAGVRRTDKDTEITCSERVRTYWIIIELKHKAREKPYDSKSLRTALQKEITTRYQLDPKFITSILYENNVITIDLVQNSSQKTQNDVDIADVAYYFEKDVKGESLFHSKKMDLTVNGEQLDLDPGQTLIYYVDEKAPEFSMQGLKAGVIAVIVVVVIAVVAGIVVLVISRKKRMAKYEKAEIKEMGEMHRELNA
# Experiment Summary: cell-based or functional assay
Quantity Kind: % Annexin V/PI-positive cells, FaDu, 1.0 µg/ml mAb (%)

{"Binder": "murine monoclonal antibody 6D11 (antibody, mouse IgG1, V domains shown, Mouse IgG1, kappa, from hybridoma; also called m338-6D11.8) VH: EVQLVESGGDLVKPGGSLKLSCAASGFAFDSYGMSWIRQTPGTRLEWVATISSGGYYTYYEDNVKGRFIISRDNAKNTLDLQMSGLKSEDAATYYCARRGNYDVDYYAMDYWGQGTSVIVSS VL: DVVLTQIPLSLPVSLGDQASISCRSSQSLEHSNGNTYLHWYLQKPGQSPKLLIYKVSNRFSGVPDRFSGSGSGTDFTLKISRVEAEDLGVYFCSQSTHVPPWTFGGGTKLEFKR", "Data Value": 26}
{"Binder": "murine monoclonal antibody 4D2 (antibody, mouse IgG1, V domains shown, Mouse IgG1, kappa, from hybridoma; also called m338-4D2.20) VH: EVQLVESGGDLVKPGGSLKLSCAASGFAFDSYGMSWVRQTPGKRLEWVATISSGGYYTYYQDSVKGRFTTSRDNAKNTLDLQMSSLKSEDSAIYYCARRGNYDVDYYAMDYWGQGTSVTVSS VL: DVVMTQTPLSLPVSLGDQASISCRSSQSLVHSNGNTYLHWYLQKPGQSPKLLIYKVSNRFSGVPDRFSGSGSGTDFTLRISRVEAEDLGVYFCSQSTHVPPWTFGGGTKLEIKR", "Data Value": 37}
{"Binder": "murine monoclonal antibody 2D11 (antibody, mouse IgG1, V domains shown, Mouse IgG1, kappa, from hybridoma; also called m322-2D11.19) VH: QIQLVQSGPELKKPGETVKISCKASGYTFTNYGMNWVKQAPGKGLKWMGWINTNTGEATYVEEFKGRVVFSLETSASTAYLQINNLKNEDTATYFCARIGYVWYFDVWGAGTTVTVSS VL: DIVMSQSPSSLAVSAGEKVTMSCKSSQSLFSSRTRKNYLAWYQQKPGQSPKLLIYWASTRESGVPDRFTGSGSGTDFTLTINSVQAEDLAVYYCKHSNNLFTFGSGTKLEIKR", "Data Value": 34}
{"Binder": "murine monoclonal antibody 12H8 (antibody, mouse IgG2a, V domains shown, Mouse IgG2a, kappa, from hybridoma; also called m342-12H8.3; m12H8) VH: QIQLVQSGPELKKPGETVKISCKTSGYTFTDYSMHWVNQAPGKGLKWMGWINTETGEPTYTDDFKGRFAFSLETSASTAYLQINNLKNEDTATYFCARTAVYWGQGTTLTVSS VL: DIQMTQSPSSLSASLGERVSLTCRASQEISGSLSWLQQKPDGTIKRLIYAASTLNSGVPKRFSGRRSGSDYSLTISSLESEDFVDYYCLQYSSYPWSFGGGTKLEIKR", "Data Value": 42}
